# Measurement Target: T1, Human IL-11 (human, UniProt P20809 22-199); further: test concentration or dose not given here
# T1 sequence: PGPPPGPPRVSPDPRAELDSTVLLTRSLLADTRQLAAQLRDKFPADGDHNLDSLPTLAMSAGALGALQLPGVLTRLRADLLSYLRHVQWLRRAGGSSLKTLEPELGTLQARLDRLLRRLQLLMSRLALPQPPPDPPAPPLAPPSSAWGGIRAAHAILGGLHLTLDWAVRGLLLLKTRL
# Assay Remarks: cell-based or functional assay
Readout Name: MMP2 production, Experiment 1 (human atrial fibroblasts + TGFB1) (ng/mL)
One number for each entry, in ng/mL.

- YU112-G01 (antibody) QVQLVESGGGVVQPGRSLRLSCAASGFTFSSYGMHWVRQAPGKGLEWVAVISYDGSNKYYADSVKGRFTISRDNSKNTLYLQMNSLRAEDTAVYYCAKLSGPNGVDYWGQGTLVTVSSGSASAPKLEEGEFSEARVQSALTQPRSVSGSPGQSVTISCTGTISDVGGYNYVSWYQQHPGKAPKLMIYDVTKRPSGVPDRFSGSKSGNTASLTISGLQAEDEAGYYCSSYAGSYTWVFGGGTELTVL: 47.6

Okay, next one:
input: Which value of MMP2 production, Experiment 1 (human atrial fibroblasts + TGFB1) has been reported for YU100-F02 (antibody) EVQLVESGGGVVQPGRSLRLSCAASGFTFSSYGMHWVRQAPGKGLEWVAVISYDGSNKYYADSVKGRFTISRDNSKNTLYLQMNSLRAEDTAVYYCAKIGATDPLDYWGQGTLVTVSSGSASAPKLEEGEFSEARVQSALTQPRSVSGSPGQSVTISCTGTSSDVGGYNYVSWYQQHPGKAPKLMIYDVTKRPSGVPDRFSGSKSGNTASLTISGLQADDEADYYCCSYAGSYTWIFGGGTKLTVL in the records?
output: 51.2
